meta.source: patent US20240228562A1

- target-under-test: T1, Human CTGF with a human IgG1 Fc Tag (Homo sapiens, UniProt P29279, H83D)
- T1 construct: purchased Creative Biomart
- T1 sequence (P29279 with tags, fused parts or gaps H83D): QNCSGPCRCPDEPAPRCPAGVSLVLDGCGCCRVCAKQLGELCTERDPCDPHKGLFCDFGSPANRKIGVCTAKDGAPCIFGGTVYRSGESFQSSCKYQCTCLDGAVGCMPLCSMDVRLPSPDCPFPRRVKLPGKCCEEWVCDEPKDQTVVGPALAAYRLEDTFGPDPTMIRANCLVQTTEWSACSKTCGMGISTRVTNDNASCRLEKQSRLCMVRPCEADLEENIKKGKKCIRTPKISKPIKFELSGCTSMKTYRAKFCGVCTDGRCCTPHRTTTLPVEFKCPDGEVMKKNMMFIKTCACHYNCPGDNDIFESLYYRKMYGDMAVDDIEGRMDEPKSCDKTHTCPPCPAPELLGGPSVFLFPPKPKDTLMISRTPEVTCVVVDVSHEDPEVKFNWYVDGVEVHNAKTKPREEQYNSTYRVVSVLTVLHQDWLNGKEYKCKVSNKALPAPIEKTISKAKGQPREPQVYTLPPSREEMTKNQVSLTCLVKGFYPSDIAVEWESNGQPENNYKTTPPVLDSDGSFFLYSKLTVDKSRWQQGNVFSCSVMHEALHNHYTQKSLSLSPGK
- assay-name: SPR epitope analysis (simultaneous binding)
- protocol-conditions: SPR, mixed and injected simultaneously at 750 nM or 1000 nM
- Experimental: Surface plasmon resonance (SPR) was used to analyze the epitopes and determine simultaneous binding of different lipocalin muteins. Human CTGF with a human IgG1 Fc Tag was directly immobilized to a CM5 Chip (Creative Biomart, 10 μg/mL in 10 mM sodium acetate pH 4.5) until an immobilization level of 470-630 resonance units was achieved. The reference channel was activated/deactivated. […]
attribute-measured: Simultaneous binding with SEQ ID NO: 29

{"molecule": "SEQ ID NO: 29: parent CTGF-binding hNGAL lipocalin mutein (protein, lipocalin mutein) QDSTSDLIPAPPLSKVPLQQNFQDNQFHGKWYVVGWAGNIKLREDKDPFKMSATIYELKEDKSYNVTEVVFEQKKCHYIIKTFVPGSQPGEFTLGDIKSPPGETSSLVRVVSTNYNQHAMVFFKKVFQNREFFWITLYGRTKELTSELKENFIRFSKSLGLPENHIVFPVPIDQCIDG", "result": "no"}
{"molecule": "SEQ ID NO: 9: parent CTGF-binding hNGAL lipocalin mutein (protein, lipocalin mutein) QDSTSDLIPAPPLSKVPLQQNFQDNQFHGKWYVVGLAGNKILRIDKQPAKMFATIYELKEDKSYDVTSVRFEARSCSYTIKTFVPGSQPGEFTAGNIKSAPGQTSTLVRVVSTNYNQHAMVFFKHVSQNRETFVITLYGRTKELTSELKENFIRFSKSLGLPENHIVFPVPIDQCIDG", "result": "yes"}
{"molecule": "SEQ ID NO: 25: parent CTGF-binding hNGAL lipocalin mutein (protein, lipocalin mutein) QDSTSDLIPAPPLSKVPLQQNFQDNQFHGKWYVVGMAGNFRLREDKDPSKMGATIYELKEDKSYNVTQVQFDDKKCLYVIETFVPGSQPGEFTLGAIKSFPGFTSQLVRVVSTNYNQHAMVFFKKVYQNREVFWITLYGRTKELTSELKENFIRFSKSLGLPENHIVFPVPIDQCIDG", "result": "no"}
